Reference for the values: patent US20250059179A1

TARGET UNDER TEST: GDP-bound KRAS protein (aa 1-169), containing both G12D and C118A amino acid substitutions (Homo sapiens, UniProt P01116, C118A/G12D)
Sequence (P01116 1-169 isoform P01116-2 G12D/C118A): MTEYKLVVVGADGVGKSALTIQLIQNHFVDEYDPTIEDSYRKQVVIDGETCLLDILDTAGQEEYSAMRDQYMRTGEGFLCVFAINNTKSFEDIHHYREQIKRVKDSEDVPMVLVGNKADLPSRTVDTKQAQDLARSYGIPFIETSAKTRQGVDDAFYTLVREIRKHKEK
TEST SUMMARY: KRAS G12D Coupled Nucleotide Exchange Assay
Format: biochemical
CONDITIONS USED: 2 h compound pre-incubation; SOS-mediated nucleotide exchange, cRAF AlphaScreen readout
Just so you know, the groups by Avg 2 h Coupled Exchange IC50 go like this: bucket 1 (below 10 nM), bucket 2 (10 nM to below 500 nM), bucket 3 (500 nM or more)

Observe how each entry below is paired with its result.
{"MOLECULE": "Nc1nc2c(-c3c(Cl)cc4c(N5CCNCC5)nc(OC[C@@H]5CC(F)(F)CN5)nc4c3F)cccc2s1 [Example 59]", "ASSIGNED LABEL": "bucket 2"}
{"MOLECULE": "CC1(N)CN(c2nc(N3CCNCC3)c3cc(Cl)c(-c4cccc5sc(N)nc45)c(F)c3n2)C1 [Example 79]", "ASSIGNED LABEL": "bucket 2"}
{"MOLECULE": "Nc1nc2c(-c3c(Cl)cc4c(N5C[C@H]6C[C@@H](C5)N6)nc(OCC56CCCN5CC(F)(F)C6)nc4c3F)ccc(F)c2s1 (stereo partly drawn) [Example 14]", "ASSIGNED LABEL": "bucket 2"}
{"MOLECULE": "Nc1nc2c(-c3c(Cl)cc4c(N5C[C@@H]6CC[C@H]5CN6)nc(OC[C@@]56CCCN5C[C@H](F)C6)nc4c3F)ccc(F)c2s1 [Example 38]", "ASSIGNED LABEL": "bucket 2"}

Just checking, what class would you give CCc1cc2c(N3C[C@H]4CC[C@@H](C3)N4)nc(OC[C@@]34CCCN3C[C@H](F)C4)nc2c(F)c1-c1ccc(F)c2sc(N)nc12 [Example 153] here?
bucket 1

Just checking, what class would you give Nc1nc2c(-c3c(Cl)cc4c(N5CCNCC5)nc(OC[C@@H]5CCCN5CCF)nc4c3F)cccc2s1 [Example 56] here?
bucket 2

Just checking, what class would you give CN1C(=O)CC2(CN(c3nc(N4CCNCC4)c4cc(Cl)c(-c5cccc6sc(N)nc56)c(F)c4n3)C2)n2ccnc21 [Example 113] here?
bucket 3

====

TARGET UNDER TEST: His-tagged KRAS G12D protein (Homo sapiens, UniProt P01116, G12D)
Sequence (P01116 1-188 isoform P01116-2 G12D): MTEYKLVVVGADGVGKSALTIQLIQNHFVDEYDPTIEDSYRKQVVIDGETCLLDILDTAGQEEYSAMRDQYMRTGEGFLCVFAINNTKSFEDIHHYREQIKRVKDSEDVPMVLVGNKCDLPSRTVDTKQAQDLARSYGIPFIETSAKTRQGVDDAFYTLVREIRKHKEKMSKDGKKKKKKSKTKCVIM
TEST SUMMARY: KRAS G12D TR-FRET Assay
CONDITIONS USED: biotinylated KRPep-2d substrate, 10 μM GDP
pIC50: −log10 of the molar value.
Label MET when pIC50 is at or above 6; otherwise label NOT MET.

Observe how each entry below is paired with its result.
{"COMPOUND": "CC(=O)N1CCC[C@H]1COc1nc(N2CCNCC2)c2cc(Cl)c(-c3cccc4sc(N)nc34)c(F)c2n1", "ASSIGNED LABEL": "NOT MET"}
{"COMPOUND": "CN1CCC[C@H]1CNc1nc(N2CCNCC2)c2cc(Cl)c(-c3cccc4sc(N)nc34)c(F)c2n1", "ASSIGNED LABEL": "NOT MET"}
{"COMPOUND": "CN1CCC[C@H]1COc1nc(C2=CCNC2)c2cc(Cl)c(-c3cccc4sc(N)nc34)c(F)c2n1", "ASSIGNED LABEL": "MET"}
{"COMPOUND": "Nc1nc2c(-c3c(Cl)cc4c(N5C[C@H]6C[C@@H](C5)N6)nc(OCC56CCCN5CC(F)(F)C6)nc4c3F)ccc(F)c2s1 (stereo partly shown)", "ASSIGNED LABEL": "MET"}
{"COMPOUND": "CC1CNCC=C1c1nc(OC[C@@H]2CCCN2C)nc2c(F)c(-c3cccc4sc(N)nc34)c(Cl)cc12 (single isomer, unassigned) [Example 145]", "ASSIGNED LABEL": "NOT MET"}

Does "Nc1nc2c(-c3c(Cl)cc4c(N5C[C@H]6COC[C@@H](C5)N6)nc(OC[C@@]56CCCN5C[C@H](F)C6)nc4c3F)ccc(F)c2s1" have a reported pIC50 of at least 6?
MET

Does "Nc1nc2c(-c3c(Cl)cc4c(N5CCNCC5)nc(OC[C@@H]5C[C@H](F)CN5)nc4c3F)cccc2s1" have a reported pIC50 of at least 6?
MET

====

TARGET UNDER TEST: GDP-bound KRAS protein (aa 1-169), containing both G12D and C118A amino acid substitutions (Homo sapiens, UniProt P01116, C118A/G12D)
TEST SUMMARY: KRAS G12D Coupled Nucleotide Exchange Assay;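 also: IC50 obtained by fitting the AlphaScreen signal with a four-parameter logistic curve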
CONDITIONS USED: read-out: Avg 2 h Coupled Exchange IC50; 2 h compound pre-incubation; SOS-mediated nucleotide exchange, cRAF AlphaScreen readout
VALUE TYPE: pIC50
Scale for pIC50: -log10 of concentration given in mol/L; no unit attached.

Identify pIC50 associated with the compound "CN(C)C1(C)CN(c2nc(N3CCNCC3)c3cc(Cl)c(-c4cccc5sc(N)nc45)c(F)c3n2)C1"
6.76

====

TARGET UNDER TEST: His-tagged KRAS G12D protein (Homo sapiens, UniProt P01116, G12D)
TEST SUMMARY: KRAS G12D TR-FRET Assay;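 also: europium anti-His antibody paired with streptavidin-d2 as FRET partners, initial 30 min incubation, then peptide 1 h and detection reagents 1 h, all at room temperature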
CONDITIONS USED: biotinylated KRPep-2d substrate, 10 μM GDP
Entries whose IC50 is below 0.2 µM take y; entries at or above 0.2 µM take n.

Observe how each entry below is paired with its result.
{"COMPOUND": "CN1CCC[C@H]1COc1nc(N2CCNC(=O)CC2)c2cc(Cl)c(-c3cccc4sc(N)nc34)c(F)c2n1", "TARGET UNDER TEST": "His-tagged KRAS G12D protein (Homo sapiens, UniProt P01116, G12D)", "ASSIGNED LABEL": "y"}
{"COMPOUND": "CN1CCCCC1CCOc1nc(N2CCNCC2)c2cc(Cl)c(-c3cccc4sc(N)nc34)c(F)c2n1 (stereo not shown)", "TARGET UNDER TEST": "His-tagged KRAS G12D protein (Homo sapiens, UniProt P01116, G12D)", "ASSIGNED LABEL": "n"}
{"COMPOUND": "CC1=C(c2nc(OC[C@@H]3CCCN3C)nc3c(F)c(-c4cccc5sc(N)nc45)c(Cl)cc23)CCNC1", "TARGET UNDER TEST": "His-tagged KRAS G12D protein (Homo sapiens, UniProt P01116, G12D)", "ASSIGNED LABEL": "n"}
{"COMPOUND": "Nc1nc2c(-c3c(Cl)cc4c(N5CCNCC5)nc(OCC56CCCN5CC(F)(F)C6)nc4c3F)cccc2s1 (stereo not shown)", "TARGET UNDER TEST": "His-tagged KRAS G12D protein (Homo sapiens, UniProt P01116, G12D)", "ASSIGNED LABEL": "y"}
{"COMPOUND": "CN1CC[C@@H]1COc1nc(N2CCNCC2)c2cc(Cl)c(-c3cccc4sc(N)nc34)c(F)c2n1", "TARGET UNDER TEST": "His-tagged KRAS G12D protein (Homo sapiens, UniProt P01116, G12D)", "ASSIGNED LABEL": "n"}
{"COMPOUND": "Nc1nc2c(-c3ccc4c(N5C[C@H]6CC[C@@H](C5)N6)nc(OC[C@@]56CCCN5C[C@H](F)C6)nc4c3)ccc(F)c2s1", "TARGET UNDER TEST": "His-tagged KRAS G12D protein (Homo sapiens, UniProt P01116, G12D)", "ASSIGNED LABEL": "y"}
{"COMPOUND": "CN1C[C@H](F)C[C@H]1COc1nc(N2[C@@H]3CC[C@H]2CNC3)c2cc(Cl)c(-c3ccc(F)c4sc(N)nc34)c(F)c2n1", "TARGET UNDER TEST": "His-tagged KRAS G12D protein (Homo sapiens, UniProt P01116, G12D)", "ASSIGNED LABEL": "y"}
{"COMPOUND": "CN1C[C@H](F)C[C@H]1COc1nc(N2C[C@H]3COC[C@@H](C2)N3)c2cc(Cl)c(-c3ccc(F)c4sc(N)nc34)c(F)c2n1", "TARGET UNDER TEST": "His-tagged KRAS G12D protein (Homo sapiens, UniProt P01116, G12D)", "ASSIGNED LABEL": "y"}
{"COMPOUND": "CN1CCC[C@H]1COc1nc(N2CC3CC(C2)N3)c2cc(Cl)c(-c3cccc4sc(N)nc34)c(F)c2n1", "TARGET UNDER TEST": "His-tagged KRAS G12D protein (Homo sapiens, UniProt P01116, G12D)", "ASSIGNED LABEL": "y"}
{"COMPOUND": "C=Cc1cc2c(N3CCNCC3)nc(OC[C@@H]3CCCN3C)nc2c(F)c1-c1cccc2sc(N)nc12", "TARGET UNDER TEST": "His-tagged KRAS G12D protein (Homo sapiens, UniProt P01116, G12D)", "ASSIGNED LABEL": "y"}

Find out if reported IC50 for "CN1C[C@H](F)C[C@H]1COc1nc2c(F)c(-c3ccc(F)c4sc(N)nc34)c(Cl)cc2c(N2[C@@H]3CC[C@H]2CNC3)c1C#N" is less than 0.2 µM
n

Find out if reported IC50 for "Nc1nc2c(-c3c(Cl)cc4c(N5CCNCC5)nc(OC[C@@H]5CCCN5CCF)nc4c3F)cccc2s1" is less than 0.2 µM
n

Find out if reported IC50 for CN1CCC[C@H]1COc1nc(N2CCNC(C(F)(F)F)C2)c2cc(Cl)c(-c3cccc4sc(N)nc34)c(F)c2n1 (stereo partly shown) is less than 0.2 µM
n

Find out if reported IC50 for "CN1CCC[C@H]1COc1nc2c(F)c(-c3ccc(F)c4sc(N)nc34)c(Cl)cc2c(N2CCNCC2)c1C#N" is less than 0.2 µM
y

Find out if reported IC50 for "CN1CCC[C@H]1COc1nc(N2C[C@H]3CC[C@@H]2CN3)c2cc(Cl)c(-c3cccc4sc(N)nc34)c(F)c2n1" is less than 0.2 µM
n

Find out if reported IC50 for "CN1CCC[C@H]1COc1nc(N2C3CNCC2COC3)c2cc(Cl)c(-c3cccc4sc(N)nc34)c(F)c2n1" is less than 0.2 µM
y
